FYI, the data here is from patent US11618746B2.

# tested target: G1 APOL1 (Homo sapiens, UniProt O14791, I384M/S342G)
# experimental protocol: Acute APOL1 Thallium Assay with inducible stable clones of HEK 293 cells
# applied conditions: HEK T-Rex tetracycline-inducible cells expressing G1 APOL1 (clone G1 DC3.25); inhibition of thallium flux rate
Quick list: IC50 per entry.

| structure notation | tested target | IC50 |
| --- | --- | --- |
| O=C(CCc1c(-c2ccc(F)cc2)[nH]c2ccc(O)cc12)N[C@H]1CCNC1=O | G1 APOL1 (Homo sapiens, UniProt O14791, I384M/S342G) | > 1000 nM |
| O=C(CCc1c(-c2ccc(C(F)F)cc2)[nH]c2ccccc12)N[C@@H]1C(=O)NC[C@H]1O | G1 APOL1 (Homo sapiens, UniProt O14791, I384M/S342G) | < 250 nM |
| C=Cc1cccc2c(CCC(=O)N[C@@H]3C(=O)NC[C@H]3O)c(-c3ccccc3)[nH]c12 | G1 APOL1 (Homo sapiens, UniProt O14791, I384M/S342G) | < 250 nM |
| O=C(CCc1c(-c2ccc(F)cc2)[nH]c2c(F)cc(OC(F)F)cc12)N[C@@H]1C(=O)NC[C@H]1O | G1 APOL1 (Homo sapiens, UniProt O14791, I384M/S342G) | < 250 nM |

---

# tested target: G1 APOL1 (Homo sapiens, UniProt O14791, I384M/S342G)
# Sequence (O14791 28-398 S342G/I384M): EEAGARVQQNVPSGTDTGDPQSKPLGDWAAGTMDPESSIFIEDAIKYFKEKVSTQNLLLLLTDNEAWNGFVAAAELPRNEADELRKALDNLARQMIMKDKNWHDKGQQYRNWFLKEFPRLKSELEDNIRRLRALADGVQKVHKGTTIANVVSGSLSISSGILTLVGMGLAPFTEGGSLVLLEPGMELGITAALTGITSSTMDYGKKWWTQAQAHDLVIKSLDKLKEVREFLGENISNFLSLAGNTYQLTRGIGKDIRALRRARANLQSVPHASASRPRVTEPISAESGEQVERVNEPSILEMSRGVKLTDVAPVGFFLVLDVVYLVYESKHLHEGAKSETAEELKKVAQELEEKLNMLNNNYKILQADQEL
# experimental protocol: Acute APOL1 Thallium Assay with inducible stable clones of HEK 293 cells
# applied conditions: HEK T-Rex tetracycline-inducible cells expressing G1 APOL1 (clone G1 DC3.25); inhibition of thallium flux rate
pIC50: −log10 of the molar value.

| molecule | tested target | pIC50 |
| --- | --- | --- |
| O=C(CCc1c(-c2ccc(F)cc2)[nH]c2c(OC(F)F)cc(F)cc12)N[C@@H]1C(=O)NC[C@H]1O | G1 APOL1 (Homo sapiens, UniProt O14791, I384M/S342G) | > 6.60 |
| O=C(CCc1c(-c2cc(F)cc(F)c2)[nH]c2c(F)cc(F)cc12)N[C@@H]1C(=O)NC[C@H]1O | G1 APOL1 (Homo sapiens, UniProt O14791, I384M/S342G) | > 6.60 |
| O=C(CCc1c(-c2ccc(F)cc2)[nH]c2c(F)cc(F)cc12)N[C@@H]1CCNC1=O | G1 APOL1 (Homo sapiens, UniProt O14791, I384M/S342G) | 6.00 to 6.60 |
| O=C(CCc1c(-c2ccccc2)[nH]c2cc(F)c(F)cc12)N[C@@H]1C(=O)NC[C@H]1O | G1 APOL1 (Homo sapiens, UniProt O14791, I384M/S342G) | > 6.60 |
| CC1C[C@H](NC(=O)CCc2c(-c3ccc(F)cc3)[nH]c3c(F)cc(F)cc23)C(=O)N1 (mixture of isomers) | G1 APOL1 (Homo sapiens, UniProt O14791, I384M/S342G) | 6.00 to 6.60 |
| O=C(CCc1c(-c2ccc(F)cc2)[nH]c2c(F)cc(F)cc12)N[C@H]1C[C@@H](CF)NC1=O | G1 APOL1 (Homo sapiens, UniProt O14791, I384M/S342G) | < 6.00 |
| CC(CC(=O)N[C@H]1CCNC1=O)c1c(-c2ccc(F)cc2)[nH]c2c(F)cc(F)cc12 (mixture of isomers) | G1 APOL1 (Homo sapiens, UniProt O14791, I384M/S342G) | < 6.00 |
| O=C1NC[C@@H](O)[C@@H]1NC(=O)C(F)(F)Cc1c(-c2ccc(F)cc2)[nH]c2c(F)cc(F)cc12 | G1 APOL1 (Homo sapiens, UniProt O14791, I384M/S342G) | > 6.60 |
| O=C(CCc1c(-c2ccc(OC(F)F)cc2)[nH]c2ccccc12)N[C@@H]1C(=O)NC[C@H]1O | G1 APOL1 (Homo sapiens, UniProt O14791, I384M/S342G) | > 6.60 |
| O=C(CCc1c(-c2ccc(F)cc2)[nH]c2c(F)cc(F)cc12)NC1CC2(CC2)NC1=O (centres unmarked) | G1 APOL1 (Homo sapiens, UniProt O14791, I384M/S342G) | < 6.00 |
| O=C(CCc1c(-c2ccc(F)cc2)[nH]c2c(F)cccc12)N[C@H]1CCNC1=O | G1 APOL1 (Homo sapiens, UniProt O14791, I384M/S342G) | > 6.60 |
| O=C(CCc1c(-c2ccc(F)cc2)[nH]c2c(F)cc(F)cc12)N[C@H]1C[C@@H](CO)NC1=O | G1 APOL1 (Homo sapiens, UniProt O14791, I384M/S342G) | < 6.00 |
| O=C(CCc1c(-c2ccc(F)cc2)[nH]c2ccc(Cl)cc12)N[C@@H]1C(=O)NC[C@H]1O | G1 APOL1 (Homo sapiens, UniProt O14791, I384M/S342G) | > 6.60 |
| Cc1cc(F)c2[nH]c(-c3ccc(F)cc3)c(CCC(=O)N[C@@H]3C(=O)NC[C@H]3O)c2c1 | G1 APOL1 (Homo sapiens, UniProt O14791, I384M/S342G) | > 6.60 |
| O=C(CCc1c(-c2ccccc2)[nH]c2cc(F)ccc12)N[C@@H]1C(=O)NC[C@H]1O | G1 APOL1 (Homo sapiens, UniProt O14791, I384M/S342G) | > 6.60 |
| O=C(CCc1c(-c2ccc(F)cc2)[nH]c2c(F)cc(Br)cc12)N[C@H]1CCNC1=O | G1 APOL1 (Homo sapiens, UniProt O14791, I384M/S342G) | > 6.60 |
| Cc1ccc(-c2[nH]c3c(F)cc(F)cc3c2CCC(=O)N[C@@H]2C(=O)NC[C@H]2O)cc1 | G1 APOL1 (Homo sapiens, UniProt O14791, I384M/S342G) | > 6.60 |
| O=C(CCc1c(-c2ccccc2)[nH]c2c(C3=CCOC3)cccc12)N[C@@H]1C(=O)NC[C@H]1O | G1 APOL1 (Homo sapiens, UniProt O14791, I384M/S342G) | < 6.00 |
| O=C(CCc1c(-c2ccccc2)[nH]c2c(C(F)(F)F)cccc12)N[C@@H]1C(=O)NC[C@H]1O | G1 APOL1 (Homo sapiens, UniProt O14791, I384M/S342G) | 6.00 to 6.60 |
| Cc1cccc2c(CCC(=O)N[C@@H]3C(=O)NC[C@H]3O)c(-c3ccccc3)[nH]c12 | G1 APOL1 (Homo sapiens, UniProt O14791, I384M/S342G) | > 6.60 |
| CC1(NC(=O)CCc2c(-c3ccc(F)cc3)[nH]c3c(F)cc(F)cc23)CCNC1=O (racemic) | G1 APOL1 (Homo sapiens, UniProt O14791, I384M/S342G) | 6.00 to 6.60 |
| CC(C)(O)c1cccc2c(CCC(=O)N[C@@H]3C(=O)NC[C@H]3O)c(-c3ccccc3)[nH]c12 | G1 APOL1 (Homo sapiens, UniProt O14791, I384M/S342G) | 6.00 to 6.60 |
| O=C(CCc1c(-c2ccccc2)[nH]c2cccc(F)c12)N[C@@H]1C(=O)NC[C@H]1O | G1 APOL1 (Homo sapiens, UniProt O14791, I384M/S342G) | > 6.60 |
| Cc1cc(F)cc2c(CCC(=O)N[C@H]3CCNC3=O)c(-c3ccc(F)cc3)[nH]c12 [Compound 38] | G1 APOL1 (Homo sapiens, UniProt O14791, I384M/S342G) | > 6.60 |
| O=C(CCc1c(-c2ccccc2)[nH]c2c(C3CCOC3)cccc12)N[C@@H]1C(=O)NC[C@H]1O (some centres unmarked) | G1 APOL1 (Homo sapiens, UniProt O14791, I384M/S342G) | 6.00 to 6.60 |
| O=C1C[C@H](NC(=O)CCc2c(-c3ccc(F)cc3)[nH]c3c(F)cc(F)cc23)C(=O)N1 | G1 APOL1 (Homo sapiens, UniProt O14791, I384M/S342G) | 6.00 to 6.60 |
| O=C1NC[C@@H](O)[C@@H]1NC(=O)[C@@H](O)Cc1c(-c2ccc(F)cc2)[nH]c2c(F)cc(F)cc12 | G1 APOL1 (Homo sapiens, UniProt O14791, I384M/S342G) | < 6.00 |
| O=C(CCc1c(-c2ccc(F)cc2)[nH]c2ccc(C(F)(F)F)cc12)N[C@@H]1C(=O)NC[C@H]1O | G1 APOL1 (Homo sapiens, UniProt O14791, I384M/S342G) | > 6.60 |
| O=C(CCc1c(-c2ccccc2)[nH]c2c(F)cc(F)cc12)N[C@H]1CCNC1=O | G1 APOL1 (Homo sapiens, UniProt O14791, I384M/S342G) | > 6.60 |
